tested on: Human breast tumor SUM149 cells; test: Inhibition of tumor cell growth (alamar blue), SUM149; type: cell-based; settings: 120 h, calculated on the basis of cell growth inhibition, day 5, alamar blue, read-out: IC50 for the inhibition of SUM149 tumor cells growth
quantity: IC50 (µM)
State the answer as a number, implicitly in µM.

Lookup: # query: IC50 of entry `CC1(C)SCCN(S(=O)(=O)c2ccc(CBr)cc2)[C@H]1C(=O)NO`
Found: 2.5

Lookup: Need IC50, item `Cc1cc(C)c(S(=O)(=O)N2CCSC(C)(C)[C@@H]2C(=O)NO)c(C)c1`
Found: 2.5

Lookup: Data request, read-out IC50, for CCCCCCCCCCCCc1ccc(S(=O)(=O)N2CCSC(C)(C)C2C(=O)NO)cc1 (stereo not shown)
Found: 2.5

Lookup: Recorded IC50 for `CC1(C)SCCN(S(=O)(=O)c2ccc(F)cc2)[C@H]1C(=O)NO` , please?
Found: 20

Lookup: Looking for the measured IC50 of `CCc1ccc(S(=O)(=O)N2CCSC(C)(C)[C@@H]2C(=O)NO)cc1` , can you help?
Found: 7.5

###

test system: caspase-3 and caspase-7 in HME-1 cells; assay: Caspase 3/7 activation (Caspase-Glo 3/7) in HME-1 normal cells; format: cell-based; conditions: Homo sapiens, HME1, R=RLU at 20 μM/RLU at 0 μM, 24 h, read-out: Caspase 3/7 activation R (RLU fold increase from untreated cells)
quantity: fold induction at 20 µM
The response must contain the number and no unit.

- CC(C)c1ccc(S(=O)(=O)N2CCSC(C)(C)[C@@H]2C(=O)NO)cc1: 1
- CC1(C)SCCN(S(=O)(=O)c2ccc(CBr)cc2)[C@H]1C(=O)NO: 1.1
- Cc1cc(C)c(C)c(S(=O)(=O)N2CCSC(C)(C)[C@@H]2C(=O)NO)c1C: 1
- CC1(C)SCCN(S(=O)(=O)c2ccccc2)[C@H]1C(=O)NO: 1
- CCCCCCCCCCCCc1ccc(S(=O)(=O)N2CCSC(C)(C)C2C(=O)NO)cc1 (stereo not drawn): 0.8

Lookup: Identify the measured fold induction at 20 µM of `Cc1cc(C)cc(S(=O)(=O)N2CCSC(C)(C)[C@@H]2C(=O)NO)c1` for caspase-3 and caspase-7 in HME-1 cells.
Found: 1.1

Lookup: Record lookup: for caspase-3 and caspase-7 in HME-1 cells, what fold induction at 20 µM belongs to `Cc1c(C)c(C)c(S(=O)(=O)N2CCSC(C)(C)[C@@H]2C(=O)NO)c(C)c1C` ?
Found: 1.2

Lookup: # query: fold induction at 20 µM | item `CC1(C)SCCN(S(=O)(=O)c2ccc(C(F)(F)F)cc2)[C@H]1C(=O)NO` | system: caspase-3 and caspase-7 in HME-1 cells
Found: 0.9

Lookup: Field: fold induction at 20 µM (caspase-3 and caspase-7 in HME-1 cells). Entry: `CCCc1ccc(S(=O)(=O)N2CCSC(C)(C)[C@@H]2C(=O)NO)cc1`
Found: 1.2

###

test system: caspase-3 and caspase-7 in SUM149 cells; experiment: Caspase 3/7 activation (Caspase-Glo 3/7) in SUM149 tumor cells; type: cell-based; conditions: Homo sapiens, R=RLU at 20 μM/RLU at 0 μM, 24 h, read-out: Caspase 3/7 activation R (RLU fold increase from untreated cells)
quantity: fold induction at 20 µM

Some compounds with recorded fold induction at 20 µM:
- Cc1c(C)c(C)c(S(=O)(=O)N2CCSC(C)(C)[C@@H]2C(=O)NO)c(C)c1C: 6.8
- Cc1cc(C)c(C)c(S(=O)(=O)N2CCSC(C)(C)[C@@H]2C(=O)NO)c1C: 4.4
- CCc1ccc(S(=O)(=O)N2CCSC(C)(C)[C@@H]2C(=O)NO)cc1: 5.7

Turning now to a further compound:
Lookup: # lookup: fold induction at 20 µM of `CC1(C)SCCN(S(=O)(=O)c2ccccc2)[C@H]1C(=O)NO`
Found: 1

This collection of values is drawn from patent US9193699B2.
